EXPERIMENTAL_TARGET: NAD(P)H dehydrogenase [quinone] 1 (Homo sapiens)
METHOD_SUMMARY: Activation of human NQO1 assessed as decrease in substrate concentration at 100 uM by HPLC analysis relative to CB-1954
METRIC_NAME: fold change (FC)
The reply should be a number, written without any unit.

Use these answered entries as a reference point.
NC(=O)c1cc(N2CCc3ccccc3C2)c([N+](=O)[O-])cc1[N+](=O)[O-] :: 6.8
O=[N+]([O-])c1cnc(N2CCc3ccccc3C2)c([N+](=O)[O-])c1 :: 2.1
O=[N+]([O-])c1cnc2c(c1)[n+]([O-])c1n2CCc2ccccc2-1 :: 27.4

Tell me measured fold change (FC) for O=C(O)c1cc([N+](=O)[O-])cc([N+](=O)[O-])c1N1CCc2ccccc2C1 please. 1.8
